The reported measurements were obtained from patent US10106580B2.

// MIC collected for Methicillin-susceptible S. aureus (ATCC 35556)
Bridge positions count the residues as written; N and C are the ends. Square brackets hold non-standard residues; d marks the D form. Peptide text beside a SMILES is read from it. * marks the point of attachment. Phe(3-F) = N[C@@H](Cc1cccc(F)c1)C(=O)O; Heptenoyl(2E) = CCCC/C=C/C(=O)*; NMeAc6c = CNC1(C(=O)O)CCCCC1; NMeAc4c = CNC1(C(=O)O)CCC1
The figure you give is taken to be in µg/mL; do not add the unit.

>  <MOLECULE>
CCCC/C=C/C(=O)N[C@@H](Cc1cccc(F)c1)C(=O)N[C@H]1COC(=O)[C@@H]2CCCN2C(=O)[C@H](C)NC(=O)C2(CCCCC2)N(C)C(=O)[C@@H]2CCCN2C1=O [Compound 10h] ({Heptenoyl(2E)}-[Phe(3-F)]SP[NMeAc6c]AP; ester 2-C)

>  <MIC, µg/mL>
39.1

$$$$

Here is the next item to consider.
What MIC appears in the records for this molecule with Methicillin-susceptible S. aureus (ATCC 35556)? CCCC/C=C/C(=O)N[C@@H](Cc1cccc(F)c1)C(=O)N[C@H]1COC(=O)[C@@H]2CCCN2C(=O)[C@H](C)NC(=O)C2(CCC2)N(C)C(=O)[C@@H]2CCCN2C1=O [Compound 10f] ({Heptenoyl(2E)}-[Phe(3-F)]SP[NMeAc4c]AP; ester 2-C) 312
